This section presents compounds with their documented total FIC50 values.
Tested on: Mycobacterium tuberculosis Erdman (autoluminescent)
Procedure Summary: total FIC50 (Loewe) at 50% inhibition, three-drug combination (log2); higher = more antagonistic
Condition Label: in vitro model: acidic pH 5.7; time point: constant (~7 days, model-specific)
Measure Name: total FIC50

Compound: CC[C@@H](CO)NCCN[C@@H](CC)CO [ethambutol] + O=[N+]([O-])c1cn2c(n1)OC[C@@H](OCc1ccc(OC(F)(F)F)cc1)C2 [pretomanid] + CO[C@H]1/C=C/O[C@@]2(C)Oc3c(C)c(O)c4c(O)c(c(/C=N/N5CCN(C)CC5)c(O)c4c3C2=O)NC(=O)/C(C)=C\C=C\[C@H](C)[C@H](O)[C@@H](C)[C@@H](O)[C@@H](C)[C@H](OC(C)=O)[C@@H]1C [rifampicin]
Measured On: Mycobacterium tuberculosis Erdman (autoluminescent)
Measure Name: total FIC50
Value Reported: -0.207

Compound: COc1nc2ccc(Br)cc2cc1[C@@H](c1ccccc1)[C@@](O)(CCN(C)C)c1cccc2ccccc12 [bedaquiline] + CC(=O)NC[C@H]1CN(c2ccc(N3CCOCC3)c(F)c2)C(=O)O1 [linezolid] + CO[C@H]1/C=C/O[C@@]2(C)Oc3c(C)c(O)c4c(O)c(c(/C=N/N5CCN(C6CCCC6)CC5)c(O)c4c3C2=O)NC(=O)/C(C)=C\C=C\[C@H](C)[C@H](O)[C@@H](C)[C@@H](O)[C@@H](C)[C@H](OC(C)=O)[C@@H]1C [rifapentine]
Measured On: Mycobacterium tuberculosis Erdman (autoluminescent)
Measure Name: total FIC50
Value Reported: 0.654

Compound: CC(C)/N=c1\cc2n(-c3ccc(Cl)cc3)c3ccccc3nc-2cc1Nc1ccc(Cl)cc1 [clofazimine] + CC(=O)NC[C@H]1CN(c2ccc(N3CCOCC3)c(F)c2)C(=O)O1 [linezolid] + CO[C@H]1/C=C/O[C@@]2(C)Oc3c(C)c(O)c4c(O)c(c(/C=N/N5CCN(C6CCCC6)CC5)c(O)c4c3C2=O)NC(=O)/C(C)=C\C=C\[C@H](C)[C@H](O)[C@@H](C)[C@@H](O)[C@@H](C)[C@H](OC(C)=O)[C@@H]1C [rifapentine]
Measured On: Mycobacterium tuberculosis Erdman (autoluminescent)
Measure Name: total FIC50
Value Reported: 0.564

Compound: CC(C)/N=c1\cc2n(-c3ccc(Cl)cc3)c3ccccc3nc-2cc1Nc1ccc(Cl)cc1 [clofazimine] + O=[N+]([O-])c1cn2c(n1)OC[C@@H](OCc1ccc(OC(F)(F)F)cc1)C2 [pretomanid] + NC(=O)c1cnccn1 [pyrazinamide]
Measured On: Mycobacterium tuberculosis Erdman (autoluminescent)
Measure Name: total FIC50
Value Reported: -0.0503

Compound: CC(C)/N=c1\cc2n(-c3ccc(Cl)cc3)c3ccccc3nc-2cc1Nc1ccc(Cl)cc1 [clofazimine] + CC[C@@H](CO)NCCN[C@@H](CC)CO [ethambutol] + CO[C@H]1/C=C/O[C@@]2(C)Oc3c(C)c(O)c4c(O)c(c(/C=N/N5CCN(C)CC5)c(O)c4c3C2=O)NC(=O)/C(C)=C\C=C\[C@H](C)[C@H](O)[C@@H](C)[C@@H](O)[C@@H](C)[C@H](OC(C)=O)[C@@H]1C [rifampicin]
Measured On: Mycobacterium tuberculosis Erdman (autoluminescent)
Measure Name: total FIC50
Value Reported: -0.0594

Compound: CC(C)/N=c1\cc2n(-c3ccc(Cl)cc3)c3ccccc3nc-2cc1Nc1ccc(Cl)cc1 [clofazimine] + NNC(=O)c1ccncc1 [isoniazid] + CC(=O)NC[C@H]1CN(c2ccc(N3CCOCC3)c(F)c2)C(=O)O1 [linezolid]
Measured On: Mycobacterium tuberculosis Erdman (autoluminescent)
Measure Name: total FIC50
Value Reported: 0.331

Hey, just so you know, these numbers are from the supplement of paper PMC8617591.
